# assayed.system: Fatty-acid amide hydrolase 1 (Rattus norvegicus, UniProt P97612)
# Sequence (P97612 whole entry): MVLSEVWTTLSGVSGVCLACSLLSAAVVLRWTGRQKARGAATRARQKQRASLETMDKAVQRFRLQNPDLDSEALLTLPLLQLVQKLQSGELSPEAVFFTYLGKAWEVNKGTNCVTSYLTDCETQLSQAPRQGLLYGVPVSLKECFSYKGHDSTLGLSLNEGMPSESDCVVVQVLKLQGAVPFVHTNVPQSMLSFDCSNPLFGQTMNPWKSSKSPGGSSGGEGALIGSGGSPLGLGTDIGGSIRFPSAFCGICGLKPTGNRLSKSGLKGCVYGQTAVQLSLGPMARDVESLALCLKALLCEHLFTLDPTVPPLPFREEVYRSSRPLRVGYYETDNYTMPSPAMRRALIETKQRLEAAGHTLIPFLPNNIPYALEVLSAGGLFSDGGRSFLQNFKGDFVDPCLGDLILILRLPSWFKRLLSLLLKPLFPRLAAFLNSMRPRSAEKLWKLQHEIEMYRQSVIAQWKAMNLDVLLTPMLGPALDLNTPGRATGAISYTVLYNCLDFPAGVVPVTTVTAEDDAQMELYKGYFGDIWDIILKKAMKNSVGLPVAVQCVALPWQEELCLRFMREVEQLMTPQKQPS
measurement.name: IC50 (nM)
# unit: nM | format: bare number

IC50 measured on `O=C(NCc1ccccc1)Oc1cccc(C(=O)c2nc3ccccc3s2)c1` = 121

Sample `O=C(NC1CCCC1)Oc1ccc(C(=O)c2nc3ccccc3o2)cc1` ; IC50 observed: 288

Form: molecule = `O=C(NC1CCCCC1)Oc1cccc(C(=O)c2nc3ccccc3s2)c1` ; IC50 = 56

// sample `O=C(NCc1ccccc1)Oc1cccc(C(=O)c2nc3ccccc3o2)c1` , its IC50 was 152

Form: molecule = `CCCNC(=O)Oc1cccc(C(=O)c2nc3ccccc3o2)c1` ; IC50 = 109

Given item `Cc1cccc(CNC(=O)Oc2cccc(C(=O)c3nc4ccccc4s3)c2)c1` , the value recorded as its IC50 is 38

Measured IC50 of `CCNC(=O)Oc1cccc(C(=O)c2nc3ccccc3s2)c1` : 238

###

# Organism: Rattus norvegicus
# assay.summary: Inhibition of MAGL in Wistar rat cerebellar membrane assessed as remaining enzyme activity at 100 uM; values are per cent of control
# conditions.used: Cerebellum
measurement.name: residual activity (%)
Response body: numeric value in %, unit text excluded.

get_value(item= `O=C(NC1CCCCC1)Oc1cccc(C(=O)c2nc3ccccc3s2)c1` , readout=residual activity) returns 79

Short answer for `O=C(NC1CCCC1)Oc1cccc(C(=O)c2nc3ccccc3s2)c1` : residual activity was 71

residual activity in this record for `O=C(NCc1ccccc1)Oc1cccc(C(=O)c2nc3ccccc3o2)c1` : 57

Field residual activity (entry `O=C(NC1CCCC1)Oc1cccc(C(=O)c2nc3ccccc3o2)c1` ) reads 54

residual activity reading for `CCCNC(=O)Oc1cccc(C(=O)c2nc3ccccc3s2)c1` : 70

Value of residual activity reported for the compound `O=C(NC1CCCCC1)Oc1cccc(C(=O)c2nc3ccccc3o2)c1` is 83

The recorded residual activity for entry `CCCNC(=O)Oc1cccc(C(=O)c2nc3ccccc3o2)c1` equals 57

For record `CCNC(=O)Oc1cccc(C(=O)c2nc3ccccc3o2)c1` the listed residual activity is 75

Just so you know, measured residual activity for `CCCCNC(=O)Oc1cccc(C(=O)c2nc3ccccc3o2)c1` came out at 59

Notebook: `CCCCNC(=O)Oc1cccc(C(=O)c2nc3ccccc3s2)c1` , residual activity read as 76

Entry `O=C(NCc1ccccc1)Oc1cccc(C(=O)c2nc3ccccc3s2)c1` ; residual activity = 75

Lab note: measured residual activity of `CCNC(=O)Oc1cccc(C(=O)c2nc3ccccc3s2)c1` was 80
